- SYSTEM TESTED: mouse VISTA (mVISTA) (Mus musculus, UniProt Q9D659)
- Construct: expressed in transfected cells; host or cells: Human embryonic kidney 293T cells
- Sequence (Q9D659 33-308): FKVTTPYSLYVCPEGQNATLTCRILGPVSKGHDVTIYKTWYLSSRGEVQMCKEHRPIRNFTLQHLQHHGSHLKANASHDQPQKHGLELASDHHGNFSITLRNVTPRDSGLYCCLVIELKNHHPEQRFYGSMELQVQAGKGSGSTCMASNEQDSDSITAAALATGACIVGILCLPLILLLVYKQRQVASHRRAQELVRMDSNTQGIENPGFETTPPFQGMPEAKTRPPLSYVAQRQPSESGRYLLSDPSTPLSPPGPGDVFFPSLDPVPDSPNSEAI
- METHOD SUMMARY: Cell-Based Binding High-Content Assay For mVISTA (HC CBA mVISTA)
- MEASUREMENT PARAMETERS: 293T cells expressing mouse VISTA; competition with biotinylated peptide (2 nM); read-out: CBA mVISTA IC50
Positions of bridges follow the written chain, without caps; N, C: chain ends. Non-standard residues stand in square brackets, D forms with d. Residues, ends and D or L forms follow the SMILES beside them. Cit = NC(=O)NCCC[C@H](N)C(=O)O; Ahp(2) = CCCCC[C@H](N)C(=O)O; NMeNle = CCCC[C@H](NC)C(=O)O; NHexGly = CCCCCCNCC(=O)O; Nle = CCCC[C@H](N)C(=O)O
MEASURE NAME: pIC50
Hey, just a heads up that pIC50 is the negative log base 10 of the concentration in molar.

>>> quantitative_result("CCCCCCN1CC(=O)N[C@@H](Cc2ccc(O)cc2)C(=O)N[C@@H](CCCC)C(=O)N[C@@H](CC(N)=O)C(=O)N[C@@H](CCCNC(N)=O)C(=O)N(C)[C@@H](CCCC)C(=O)N[C@@H](CCCCC)C(=O)N2CCC[C@H]2C(=O)N[C@@H](C(C)C)C(=O)N[C@@H](CC(=O)O)C(=O)N[C@H](C(=O)NCC(=O)O)CSCC(=O)N[C@@H](Cc2ccccc2)C(=O)N[C@@H](Cc2ccc(O)cc2)C(=O)N[C@@H](CC(=O)O)C1=O [Example 1082] ({CH2CO}-FYD[NHexGly]Y[Nle]N[Cit][NMeNle][Ahp(2)]PVDCG-OH; thioether N-14)")
8.09

# ---- query compound ----
Prompt: Give its pIC50 value. Item: CCCCCCN1CC(=O)N[C@@H](Cc2ccc(O)cc2)C(=O)N[C@@H](CCCC)C(=O)N[C@@H](CC(=O)O)C(=O)N[C@@H](CCCNC(=N)N)C(=O)N(C)[C@@H](CCCC)C(=O)N[C@@H](CCCCC)C(=O)N2CCC[C@H]2C(=O)N[C@@H](C(C)C)C(=O)N[C@@H](CC(=O)O)C(=O)N[C@H](C(=O)N[C@@H](CC(=O)O)C(N)=O)CSCC(=O)N[C@@H](Cc2ccccc2)C(=O)N[C@@H](Cc2ccc(O)cc2)C(=O)N[C@@H](CC(=O)O)C1=O [Example 1073] ({CH2CO}-FYD[NHexGly]Y[Nle]DR[NMeNle][Ahp(2)]PVDCD-NH2; thioether N-14)
Response: 8.18
